Tested on: P388 leukemia ip, CD2F1 mice, survival T/C
Experiment: NCI In Vivo Anticancer Drug Screen. Data for tumor model P388 Leukemia (intraperitoneal) in CD2F1 (CDF1) mice
Conditions: endpoint: median survival time; dose: 25.0 mg/kg/injection; schedule: Q01DX009 (ip); vehicle: other; higher = longer survival
Toxic doses and inconclusive results are not listed.
Observation Type: T/C

- Compound: "COc1ccc(/C(C#N)=C\\c2ccnc3ccccc23)c(OC)c1"
  T/C: "91 % of control"

Q. So what's the measured T/C for this one? O=C(NC(CCS(=O)(=O)NCc1ccc(S(=O)(=O)F)cc1)C(=O)OCc1ccccc1)OCc1ccccc1 (stereo not drawn)
A. 89 % of control

Q. Thanks! And CC(C)CCCCCCCCCCCCC(=O)NC1C(C)OC(Nc2ncnc3nc[nH]c23)C(O)C1O (stereo not drawn) ?
A. 88 % of control

Q. Consider next the compound "ClCC(OCc1ccccc1)OCc1ccccc1" in the same way.
A. 100 % of control

Q. Field entry: "CCOC(=O)CC(Cc1cc(OC)ccc1OC)(C(C)=O)C(C)=O"
A. 100 % of control

---

T/C values for the molecules below.
Tested on: P388 leukemia ip, CD2F1 mice, survival T/C
Assay: NCI In Vivo Anticancer Drug Screen. Data for tumor model P388 Leukemia (intraperitoneal) in CD2F1 (CDF1) mice
Details: endpoint: median survival time; dose: 25.0 mg/kg/injection; schedule: Q04DX003 (ip); vehicle: water; higher = longer survival
Inconclusive results and toxic doses are left out.

Q. Requested field: T/C. Item: COC1=Cc2c(O)c3c(c(O)c2C(OC2CC(N)C(O)C(C)O2)C1)C(=O)c1c(OC)cccc1C3=O (stereo not given)
A. 109 % of control

Q. How about this molecule: CCC(=O)[C@]1(O)Cc2c(O)c3c(c(O)c2[C@@H](OC2CC(N)C(O)C(C)O2)C1)C(=O)c1c(OC)cccc1C3=O (stereo not given in full)
A. 119 % of control

Q. Try this molecule too: "CNC(=O)c1n[nH]c(C)c1N"
A. 100 % of control

Q. Consider next the molecule COc1ccc2c(c1O)-c1cccc3c1C(C2)N(CCOCCCl)CC3 (stereo not given) in the same way.
A. 107 % of control

Q. Proceed to "O=C(O)C(=O)O.[NH2-].[NH2-].[NH2-].[NH2-].[Ru+4]"
A. 98 % of control

---

# key: entry, value: T/C
Tested on: P388 leukemia ip, CD2F1 mice, survival T/C
Assay: NCI In Vivo Anticancer Drug Screen. Data for tumor model P388 Leukemia (intraperitoneal) in CD2F1 (CDF1) mice
Conditions: endpoint: median survival time; dose: 60.0 mg/kg/injection; schedule: Q01DX005 (ip); vehicle: Klucel + Tween-80; higher = longer survival
Inconclusive results and toxic doses are left out.

- Molecule: "NC(=O)NC(c1ccc(O)cc1)c1cc2c(cc1O)OCO2 (centres undefined)"
  Observation Type: "T/C"
  Meas Value: "86 % of control"

Q. Can you look up T/C on P388 leukemia ip, CD2F1 mice, survival T/C for "ClC(Cl)(Cl)C1=NC2=C(Br)C=C(Br)C3=NC(C(Br)(Br)Br)=NC(=N1)N32" ?
A. 105 % of control

Q. Record: "CC(=O)Oc1cc2oc([O-])c[n+]2c2ccccc12"
A. 124 % of control

Q. Now try CCOC(=O)CC(N)/C(C)=N\O (centres undefined) .
A. 104 % of control

---

Measured T/C values are reported for all entries that follow.
System: P388 leukemia ip, CD2F1 mice, survival T/C
Assay: NCI In Vivo Anticancer Drug Screen. Data for tumor model P388 Leukemia (intraperitoneal) in CD2F1 (CDF1) mice
Conditions: endpoint: median survival time; dose: 100.0 mg/kg/injection; schedule: Q01DX009 (ip); vehicle: other; higher = longer survival
Inconclusive results and toxic doses are left out.

Completed entries (count: 4):
- Molecule: "CCC(C)C(NC(=O)C(Cc1c[nH]c2ccccc12)NC(=O)OC(C)(C)C)C(=O)OC (centres undefined)"
  Meas Value: "106 % of control"
- Molecule: "c1ccc2sc(NCCSSCCNc3nc4ccccc4s3)nc2c1"
  Meas Value: "90 % of control"
- Molecule: "CCOC(=O)CC(Cc1cc(OC)ccc1OC)(C(C)=O)C(C)=O"
  Meas Value: "100 % of control"
- Molecule: "CCOC(=O)/C=C/C(=O)NNC(=O)OC(C)(C)C"
  Meas Value: "119 % of control"

Q. T/C lookup needed for O=C(O)C(CSC(c1ccccc1)(c1ccccc1)c1ccccc1)NC(c1ccccc1)(c1ccccc1)c1ccccc1 (centres undefined) , thanks.
A. 98 % of control

Q. Request: "COc1ccc(C2=NCC2(Cl)Cl)cc1"
A. 96 % of control

Q. // next record "COc1cc(/C=N/NS(=O)(=O)c2ccc(C)cc2)cc([N+](=O)[O-])c1O"
A. 106 % of control

Q. And the next one, "CCOc1nc(C)c(C)c(-c2ccc(OC)c(OC)c2OCc2ccccc2)c1C#N" ?
A. 104 % of control

Q. Another: CC1(C)C(C(N)=O)C(=O)NC(=O)C1C(N)=O (centres undefined)
A. 99 % of control

---

System: P388 leukemia ip, CD2F1 mice, survival T/C
Test: NCI In Vivo Anticancer Drug Screen. Data for tumor model P388 Leukemia (intraperitoneal) in CD2F1 (CDF1) mice
Conditions: endpoint: median survival time; dose: 6.25 mg/kg/injection; schedule: Q01DX009 (ip); vehicle: other; higher = longer survival
Inconclusive results and toxic doses are left out.
Listed molecules paired with reported T/C

- Molecule: "CCOC(=O)c1ccc(N=C/C(Cl)=C(/Cl)C(=O)O)cc1"
  Meas Value: "92 % of control"
- Molecule: "CC(=O)N(CCCN1C(=O)c2ccccc2C1=O)c1ccc2c(c1)c(-c1ccccc1)nc1cc([N+](=O)[O-])ccc12"
  Meas Value: "95 % of control"

Q. Request body: readout T/C, system P388 leukemia ip, CD2F1 mice, survival T/C, query CC(C)CCCCCCCCCCCCC(=O)NC1C(C)OC(Nc2ncnc3nc[nH]c23)C(O)C1O (centres undefined) . Return the value.
A. 104 % of control

Q. Here is the next molecule: "Nc1n[n+](-c2cccc([N+](=O)[O-])c2)no1"
A. 113 % of control

---

As shown below, each of these molecules has a reported T/C value.
Test system: P388 leukemia ip, CD2F1 mice, survival T/C
Experiment: NCI In Vivo Anticancer Drug Screen. Data for tumor model P388 Leukemia (intraperitoneal) in CD2F1 (CDF1) mice
Conditions: endpoint: median survival time; dose: 100.0 mg/kg/injection; schedule: Q01DX001 (ip); vehicle: saline; higher = longer survival
Inconclusive results and toxic doses are left out.

Field: example entries. Status: answers known.
- Molecule: "CNC(=S)NNc1ccc(Cl)nn1"
  T/C: "96 % of control"
- Molecule: "COc1cc(C[C@H]2c3cc(OC)c(OC)cc3CCN2C)c(Oc2cc3c(cc2OC)-c2c(OC)c(OC)cc4c2[C@H](C3)N(C)CC4)cc1OC"
  T/C: "91 % of control"
- Molecule: "COC(=O)C1(C)CCCC2(C)c3cc(OC(C)=O)c(C(C)C)cc3CCC12 (stereo not given)"
  T/C: "100 % of control"
- Molecule: "C/C(=N/NC(=O)c1ccccc1)C(=NO)/C(C)=N\\NC(=O)c1ccccc1"
  T/C: "100 % of control"
- Molecule: "O=c1[nH]nc(/C=C/C=C/c2ccccc2)c(=O)[nH]1"
  T/C: "97 % of control"
- Molecule: "CC(=O)NC(N)=NC#N"
  T/C: "100 % of control"
- Molecule: "c1ccc(C2=C(c3ccccc3)c3ccccc3CO2)cc1"
  T/C: "105 % of control"
- Molecule: "ClC(Cl)=C(Cl)C(Cl)=C(Cl)Cl"
  T/C: "100 % of control"
- Molecule: "CCOC(=O)N(C)C(=O)CN(C=O)c1ncc([N+](=O)[O-])s1"
  T/C: "101 % of control"

Turning to the following molecule.
Q. Would you kindly share the measured T/C for NC(Cc1cnc[nH]1)C(=O)NO (stereo not given) ?
A. 94 % of control

---

In this section, each of the compounds is paired with its reported T/C.
System: P388 leukemia ip, CD2F1 mice, survival T/C
Experiment: NCI In Vivo Anticancer Drug Screen. Data for tumor model P388 Leukemia (intraperitoneal) in CD2F1 (CDF1) mice
Conditions: endpoint: median survival time; dose: 25.0 mg/kg/injection; schedule: Q01DX009 (ip); vehicle: water; higher = longer survival
Inconclusive results and toxic doses are left out.

- Smiles: "O=C(O)c1c(C(=O)O)c(C(=O)O)c(C(=O)O)c(C(=O)O)c1C(=O)O"
  T/C: "111 % of control"
- Smiles: "COc1ccc2nc3cc(Cl)ccc3c(NCCCCN3CCCC3)c2n1"
  T/C: "105 % of control"
- Smiles: "CCOC(=O)C(NC(N)=O)C(=O)OCC"
  T/C: "89 % of control"
- Smiles: "COc1ccc2cc3ccncc3cc2c1OC"
  T/C: "99 % of control"

Let us move to another entry and its T/C.
Q. GET /values?readout=T/C&item= "Nc1n[n+](-c2cccc([N+](=O)[O-])c2)no1"
A. 121 % of control
